Biological target: Escherichia coli CysE (Escherichia coli, UniProt P0A9D4)
Sequence (P0A9D4 1-273): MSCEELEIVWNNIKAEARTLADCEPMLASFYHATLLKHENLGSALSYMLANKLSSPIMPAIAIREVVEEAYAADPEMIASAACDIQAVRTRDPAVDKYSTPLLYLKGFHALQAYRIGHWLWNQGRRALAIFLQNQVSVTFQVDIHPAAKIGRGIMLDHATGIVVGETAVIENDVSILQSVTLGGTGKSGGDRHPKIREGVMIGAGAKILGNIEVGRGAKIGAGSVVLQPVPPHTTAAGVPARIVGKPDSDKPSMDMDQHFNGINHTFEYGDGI
Test: L-Ser acetylation steady-state kinetics of isolated CysE
Details: read-out: Kd,acCoa; -CysK; dissociation from unligated enzyme; global fit Eqn 2
measure_name: pKd
pKd is a log-scale quantity: -log10 of the concentration expressed in molar.

Give the reported pKd for this compound. CC(=O)SCCNC(=O)CCNC(=O)[C@H](O)C(C)(C)COP(=O)(O)OP(=O)(O)OC[C@H]1O[C@@H](n2cnc3c(N)ncnc32)[C@H](O)[C@@H]1OP(=O)(O)O
4.00

###

target: cysteine synthase complex (CSC; E. coli CysE in complex with E. coli CysK) (Escherichia coli); test: L-Ser acetylation steady-state kinetics of CysE in complex with CysK
measure_name: pKd
# pKd: negative log10 of molar concentration; output just the value

// Input: N[C@@H](CO)C(=O)O . Output its pKd only.
3.22

###

target: cysteine synthase complex (CSC; E. coli CysE in complex with E. coli CysK) (Escherichia coli, UniProt P0A9D4); assay: L-Ser acetylation steady-state kinetics of CysE in complex with CysK
measure_name: pKi
To interpret pKi, take it as minus log10 of a concentration measured in moles per litre.

Check the records and state pKi for N[C@@H](CO)C(=O)O [L-Ser, L-serine]
1.80

###

molecular target: Escherichia coli CysE (Escherichia coli, UniProt P0A9D4); experiment: L-Ser acetylation steady-state kinetics of isolated CysE; settings: L-Cys concentration around the IC50, 20 mM L-Ser (saturating); Fig. S5B
pIC50: −log10 of the molar value.
measure_name: pIC50

Quote pIC50 reported for N[C@@H](CS)C(=O)O please.
~6.30

###

target: cysteine synthase complex (CSC; E. coli CysE in complex with E. coli CysK) (Escherichia coli); assay: L-Ser acetylation steady-state kinetics of CysE in complex with CysK; details: read-out: Kd,acCoa; +CysK fivefold molar excess; global fit Eqn 2
measure_name: Kd (µM)
Kindly provide the numeric value in µM only, without the unit symbol.

Given CC(=O)SCCNC(=O)CCNC(=O)[C@H](O)C(C)(C)COP(=O)(O)OP(=O)(O)OC[C@H]1O[C@@H](n2cnc3c(N)ncnc32)[C@H](O)[C@@H]1OP(=O)(O)O , respond with its Kd.
100

###

biological target: Escherichia coli CysE (Escherichia coli, UniProt P0A9D4); assay: L-Ser acetylation steady-state kinetics of isolated CysE
measure_name: Kd (µM)
Number only, in µM; omit the unit.

Tell us which Kd value is on record for N[C@@H](CO)C(=O)O
500

###

molecular target: cysteine synthase complex (CSC; E. coli CysE in complex with E. coli CysK) (Escherichia coli, UniProt P0A9D4); experiment: L-Ser acetylation steady-state kinetics of CysE in complex with CysK
measure_name: pIC50
Quick note: pIC50 values are minus log10 of concentrations in mol/L.

Dear colleague, please send me the reported pIC50 for N[C@@H](CS)C(=O)O when you can.
6.15
